// inhibition at 3 µM lookup, one value per entry
Target: RORγt (Homo sapiens, UniProt P51449)
Sequence (P51449 1-497 isoform P51449-2): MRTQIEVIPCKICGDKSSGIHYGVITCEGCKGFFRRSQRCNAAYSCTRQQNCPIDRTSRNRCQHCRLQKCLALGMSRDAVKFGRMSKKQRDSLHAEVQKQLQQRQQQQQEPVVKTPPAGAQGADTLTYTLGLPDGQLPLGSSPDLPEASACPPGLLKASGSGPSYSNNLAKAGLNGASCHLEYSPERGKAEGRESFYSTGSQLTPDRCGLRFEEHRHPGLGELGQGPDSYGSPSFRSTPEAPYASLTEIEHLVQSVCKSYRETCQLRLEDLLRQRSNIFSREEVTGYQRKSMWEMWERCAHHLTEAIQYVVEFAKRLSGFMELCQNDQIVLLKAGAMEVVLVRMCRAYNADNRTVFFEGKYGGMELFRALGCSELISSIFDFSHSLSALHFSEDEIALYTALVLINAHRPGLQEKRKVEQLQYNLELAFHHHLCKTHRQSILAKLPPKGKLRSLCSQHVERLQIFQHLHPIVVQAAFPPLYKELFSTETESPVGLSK
Assay: Jurkat reporter test (human IL-17 ROR response element luciferase reporter)
Type: cell-based
Conditions: test compound 3 μM; Jurkat cells; read-out: luminescence level inhibitory rate (%) at test compound 3 μM
readout.kind: inhibition at 3 µM (%)

                           smiles_structure                           test_target  measured_value
0  CC(C)(C)c1ccc(NC(=O)[C@H](NC(=O)[C@@H]2CNC(=O)C2)C2CCC(F)(F)CC2)cc1F  RORγt (Homo sapiens, UniProt P51449)              97
1  COCc1ccc([C@@H](NC(=O)[C@H]2CNC(=O)C2)C(=O)Nc2cc(F)c(C(C)(C)C)c(F)c2)cc1  RORγt (Homo sapiens, UniProt P51449)            99.7
2  COCc1ccc([C@@H](NC(=O)CC2CC(=O)NC(=O)C2)C(=O)Nc2ccc(C(C)(C)C)c(F)c2)cc1  RORγt (Homo sapiens, UniProt P51449)            98.5
3  COCc1ccc([C@@H](NC(=O)Cc2cc(O)no2)C(=O)Nc2cc(F)c(C(C)(C)C)c(F)c2)cc1  RORγt (Homo sapiens, UniProt P51449)             102

----------
Target: RORγt (Homo sapiens, UniProt P51449)
Sequence (P51449 1-497 isoform P51449-2): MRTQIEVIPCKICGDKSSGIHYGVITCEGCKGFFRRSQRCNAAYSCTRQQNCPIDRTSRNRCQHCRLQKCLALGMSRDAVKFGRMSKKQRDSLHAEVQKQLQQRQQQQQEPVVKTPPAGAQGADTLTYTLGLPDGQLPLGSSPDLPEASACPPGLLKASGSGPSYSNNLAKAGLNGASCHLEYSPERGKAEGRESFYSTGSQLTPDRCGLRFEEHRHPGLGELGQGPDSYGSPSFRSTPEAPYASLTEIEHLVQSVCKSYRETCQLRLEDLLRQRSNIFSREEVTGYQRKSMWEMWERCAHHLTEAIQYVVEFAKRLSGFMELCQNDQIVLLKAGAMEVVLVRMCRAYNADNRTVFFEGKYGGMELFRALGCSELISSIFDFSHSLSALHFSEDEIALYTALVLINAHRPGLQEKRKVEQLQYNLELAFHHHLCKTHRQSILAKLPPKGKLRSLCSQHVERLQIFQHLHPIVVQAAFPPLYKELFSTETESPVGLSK
Experiment: Cofactor recruitment test (Alpha Screen, biotinylated SRC-1 peptide)
Type: biochemical
Conditions: read-out: signal value inhibitory rate (%) at test compound 1 μM
Use 90% as the dividing line for inhibition at 1 µM, with the line itself on the MET side and lower values as NOT MET.

In [3]: df
Out[3]:
                                   compound                           test_target  classification
0  COCc1ccc([C@@H](NC(=O)CCS(C)(=O)=O)C(=O)Nc2ccc([Si](C)(C)C)c(F)c2)cc1 [Example 80]  RORγt (Homo sapiens, UniProt P51449)             MET
1  COCc1ccc([C@@H](NC(=O)Cn2cnccc2=O)C(=O)Nc2cc(F)c([Si](C)(C)C)c(F)c2)cc1 [Example 58]  RORγt (Homo sapiens, UniProt P51449)             MET
2  COCc1ccc([C@@H](NC(=O)CN2C(=O)CNC2=O)C(=O)Nc2ccc([Si](C)(C)C)c(F)c2)cc1 [Example 62]  RORγt (Homo sapiens, UniProt P51449)             MET
3  COCc1ccc([C@@H](NC(=O)CCC(F)F)C(=O)Nc2ccc([Si](C)(C)C)c(F)c2)cc1 [Example 92]  RORγt (Homo sapiens, UniProt P51449)             MET
4  CC(C)(C)c1ccc(NC(=O)[C@H](NC(=O)[C@@H](O)C(F)(F)F)C2CCOCC2)cc1Cl [Example 10]  RORγt (Homo sapiens, UniProt P51449)         NOT MET

Taken from patent US11851449B2.
